TEST DETAILS: Pharmacokinetic study in rats after oral administration of N. incisum extract (HPLC-FLD of plasma)
Type: in vivo, Sprague–Dawley rats
ASSAY CONDITIONS: male, Sprague-Dawley, rat, in vivo, po, 4.2 g/kg
PROPERTY NAME: AUC(0-inf)

Qu. I have this molecule here, CC(C)=CCOc1c2occc2cc2ccc(=O)oc12 [Imperatorin, imperatorin] , and I need its recorded AUC(0-inf).
Ans. 13900 ng·h/mL

---

TEST DETAILS: Pharmacokinetic study in rats after oral administration of N. incisum extract (HPLC-FLD of plasma)
Format: in vivo, Sprague–Dawley rats
ASSAY CONDITIONS: male, Sprague-Dawley; rat plasma, oral 4.2 g kg^−1 N. incisum extract, n = 8, mean ± SD; read-out: AUC0–∞
PROPERTY NAME: AUC(0-inf)
Number plus unit, in that order.

Qu. Which AUC(0-inf) value belongs to CC(C)=CCOc1c2ccoc2cc2oc(=O)ccc12 [Isoimperatorin, isoimperatorin] ?
Ans. 2120 ng·h/mL

Qu. What do we get for COc1c2ccoc2cc2oc(=O)ccc12 [Bergapten, bergapten] ?
Ans. 1960 ng·h/mL

Qu. Try CC(C)=CC(O)C/C(C)=C/COc1c2ccoc2cc2oc(=O)ccc12 (stereo not drawn) [Notopterol, notopterol] next.
Ans. 296 ng·h/mL
